assay: amyloid nucleation score (Sup35N fusion, yeast selection) (log enrichment); library NNK2; higher = more nucleation; inactive = no reads after selection;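 also: zero at mode of non-aggregating sequences after 7 days selection at 30°C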
Outcome label depends on amyloid nucleation score relative to 0.4: at/above gives yes (1), below gives no (0).

Completed entries (count: 6):
>>> group_label("DGYIVFSRNAVNIFSVYFTG")
"yes (1)"
>>> group_label("YLPFMWCCMIWWAGGVCRL")
"no (0)"
>>> group_label("HCVDLLREMQ")
"yes (1)"
>>> group_label("KWYICLKIIQWNCISDQC")
"yes (1)"
>>> group_label("VYAIHGTRYCELGAPIDKLY")
"yes (1)"
>>> group_label("SSGTCTSHSLVLIHMGLRYV")
"no (0)"

Lookup: API: above_or_equal(metric=amyloid nucleation score, cutoff=0.4) for item ILVWANSHVLDVDHRDRGRR
Found: yes (1)

Lookup: API: above_or_equal(metric=amyloid nucleation score, cutoff=0.4) for item LNLLDGWFL
Found: no (0)

Lookup: API: above_or_equal(metric=amyloid nucleation score, cutoff=0.4) for item YIGQVGYRCSAVGQSYSRPG
Found: yes (1)
